Consider the following compounds; for each one, report its MIC50.
Tested on: Streptococcus mitis
Assay: Antibacterial activity against Streptococcus mitis obtained from complicated skin and skin structure infections by agar dilution method
Type: functional
State the answer as a number, implicitly in µg/mL.

Q: // fetch MIC50 given entry CC1(C)S[C@@H]2[C@H](NC(=O)Cc3ccccc3)C(=O)N2[C@H]1C(=O)O [PENICILLIN G]
Result: 0.5

Q: // fetch MIC50 given entry CN[C@H](CC(C)C)C(=O)N[C@H]1C(=O)N[C@@H](CC(N)=O)C(=O)N[C@H]2C(=O)N[C@H]3C(=O)N[C@H](C(=O)N[C@H](C(=O)O)c4cc(O)cc(O)c4-c4cc3ccc4O)[C@H](O)c3ccc(c(Cl)c3)Oc3cc2cc(c3O[C@@H]2O[C@H](CO)[C@@H](O)[C@H](O)[C@H]2O[C@H]2C[C@](C)(N)[C@H](O)[C@H](C)O2)Oc2ccc(cc2Cl)[C@H]1O [VANCOMYCIN]
Result: 1

Q: // fetch MIC50 given entry CC(C)(O/N=C(\C(=O)N[C@@H]1C(=O)N2C(C(=O)[O-])=C(C[n+]3ccccc3)CS[C@H]12)c1csc(N)n1)C(=O)O [CEFTAZIDIME]
Result: 0.12

The measured values listed here are drawn from ChEMBL document CHEMBL1275492.
